biological target: KRAS G12S (Homo sapiens, UniProt P01116+P62937, G12S); experiment: Disruption of BRAF RBD interaction with Ras (FRET / MOA assay, with Cyclophilin A); assay type: biochemical; conditions: read-out: KRAS G12S FRET data, IC50
Sequence (P01116 1-169 isoform P01116-2 G12S limits assumed): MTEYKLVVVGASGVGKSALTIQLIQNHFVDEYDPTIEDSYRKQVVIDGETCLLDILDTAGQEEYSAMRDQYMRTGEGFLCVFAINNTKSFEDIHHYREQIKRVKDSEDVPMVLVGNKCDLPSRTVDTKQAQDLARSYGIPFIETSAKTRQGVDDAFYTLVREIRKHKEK
Sequence (P62937 whole entry): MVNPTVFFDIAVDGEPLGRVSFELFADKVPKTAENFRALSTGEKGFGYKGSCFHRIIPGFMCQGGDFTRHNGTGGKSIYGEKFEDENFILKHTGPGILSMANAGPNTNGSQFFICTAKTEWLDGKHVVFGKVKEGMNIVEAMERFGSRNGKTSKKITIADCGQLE
measured endpoint: IC50

Please review the following examples before continuing.
Incoming: So what's the measured IC50 for this one? CCn1c(-c2cccnc2[C@H](C)OC)c2c3cc(ccc31)-c1csc(n1)C[C@H](NC(=O)[C@H](C(C)C)N(C)C(=O)N1CC(N(C)C)C1)C(=O)N1CCC[C@H](N1)C(=O)OCC(C)(C)C2 (racemic) [Example A170]
Outgoing: 100 to 1000 nM

Incoming: Recorded IC50 of C=CC(=O)N1CC[C@H](C(=O)N(C)[C@H](C(=O)N[C@H]2Cc3cc(O)cc(c3)-c3ccc4c(c3)c(c(-c3ccccc3N3CCOCC3)n4CC)CC(C)(C)COC(=O)[C@@H]3CCCN(N3)C2=O)C(C)C)C1 [Example A026] , please.
Outgoing: > 10000 nM

Incoming: What value of IC50 has been recorded for this entry: C=CC(=O)N1CC[C@H](C(=O)N(C)[C@H](C(=O)N[C@H]2Cc3cc(O)cc(c3)-c3ccc4c(c3)c(c(-c3cnccc3C)n4CC)CC(C)(C)COC(=O)[C@@H]3CCCN(N3)C2=O)C(C)C)C1 [Example A077]
Outgoing: 100 to 1000 nM

Incoming: May I ask what IC50 has been recorded for CCn1c(-c2cnccc2COC)c2c3cc(ccc31)-c1cc(O)cc(c1)C[C@H](NC(=O)[C@H](C(C)C)N(C)C(=O)OC1CN(C)C1)C(=O)N1CCC[C@H](N1)C(=O)OCC(C)(C)C2 [Example A101] ?
Outgoing: 100 to 1000 nM

Then this molecule:
Incoming: What does the record list as IC50 for C=CC(=O)N1CC[C@H](C(=O)N(C)[C@H](C(=O)N[C@H]2Cc3cc(O)cc(c3)-c3ccc4c(c3)c(c(-c3cnn(C)c3)n4CC)CC(C)(C)COC(=O)[C@@H]3CCCN(N3)C2=O)C(C)C)C1 [Example A099] ?
Outgoing: 1000 to 10000 nM

====

Target: KRAS WT (Homo sapiens, UniProt P01116+P62937)
Sequence (P01116 1-169 isoform P01116-2 limits assumed, one chain of several): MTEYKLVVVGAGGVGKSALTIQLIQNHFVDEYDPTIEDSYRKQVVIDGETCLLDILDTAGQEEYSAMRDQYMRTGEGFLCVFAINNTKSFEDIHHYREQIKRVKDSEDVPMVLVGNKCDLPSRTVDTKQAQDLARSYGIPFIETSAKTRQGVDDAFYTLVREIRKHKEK
Test: Disruption of BRAF RBD interaction with Ras (FRET / MOA assay, with Cyclophilin A)
Assay type: biochemical
Details: KRAS WT; read-out: KRAS WT FRET data IC50
From the text: This protocol may also be executed substituting other Ras proteins or nucleotides. The purpose of this biochemical assay was to measure the ability of test compounds to facilitate ternary complex formation between a nucleotide-loaded K-Ras isoform and Cyclophilin A; the resulting ternary complex disrupts binding to a BRAF^RBD construct, inhibiting K-Ras signaling through a RAF effector. Data is reported as IC50 values. […]
measured endpoint: IC50

Some compounds with recorded IC50:
Incoming: Could you tell me which IC50 is on file for CCn1c(-c2cccnc2[C@H](C)OC)c2c3cc(ccc31)-c1cc(O)cc(c1)C[C@H](NC(=O)[C@H](C(C)C)N(C)C(=O)[C@H]1CCCN[C@@H]1C)C(=O)N1CCC[C@H](N1)C(=O)OCC(C)(C)C2 [Example A134] ?
Outgoing: 100 to 1000 nM

Incoming: Look at this compound and give its reported IC50. CCn1c(-c2cccnc2[C@H](C)OC)c2c3cc(ccc31)-c1cc(O)cc(c1)C[C@H](NC(=O)[C@H](C(C)C)N(C)C(=O)[C@H]1CCN(CCO)C1)C(=O)N1CCC[C@H](N1)C(=O)OCC(C)(C)C2 [Example A111]
Outgoing: 10 to 100 nM

Continuing:
Incoming: // lookup IC50 for CCn1c(-c2cccnc2[C@H](C)OC)c2c3cc(ccc31)-c1csc(n1)C[C@H](NC(=O)[C@H](C(C)C)N(C)C(=O)N1CC[C@H]3CN(C)C[C@H]31)C(=O)N1CCC[C@H](N1)C(=O)OCC(C)(C)C2 (atropisomer, axis not shown) [Example A471]
Outgoing: 100 to 1000 nM

Incoming: Data request, read-out IC50, for CCn1c(-c2cccnc2[C@H](C)OC)c2c3cc(ccc31)-c1csc(n1)C[C@H](NC(=O)[C@H](C(C)C)N(C)C(=O)[C@H]1CCCO1)C(=O)N1CCC[C@H](N1)C(=O)OCC(C)(C)C2 [Example A238]
Outgoing: 1000 to 10000 nM

Hello, the source for this data is patent US20230233569A1, in case you need it.
